- System: Kallikrein
- test details: Substrate specificity: enzyme reaction with kallikrein, colorimetric
- Type: biochemical, Swine
- test conditions: 700 nm; So = 0.4 mmol; 37° C., 5 minutes; pH 7.8; pentacyanoamineferroate
Counter-ions that a name gives are not always drawn.
property measured: absorbance (O.D.) measured, KL
API: value field is a number in O.D.; no unit string.

Consider the reported absorbance (O.D.) measured, KL for these compounds:
INSERT INTO assay_data (compound, observed_measurement) VALUES
  ('CCC[C@H](NC(=O)[C@@H]1CCC(=O)N1)C(=O)N[C@@H](CCCNC(=N)N)C(=O)Nc1ccc(O)c(C(=O)O)c1 [PS-1295, H--PyroGlu--NVal--Arg--CHA.HCl]', 0.006),
  ('N=C(N)NCCC[C@H](NC(=O)CNC(=O)[C@H](N)CCC(=O)O)C(=O)Nc1ccc(O)c(C(=O)O)c1 [PS-1298, H--D--Glu--Gly--Arg--CHA.2HCl]', 0.003);

The recorded absorbance (O.D.) measured, KL for entry C[C@H](NC(=O)[C@@H]1CCC(=O)N1)C(=O)N[C@@H](CCCNC(=N)N)C(=O)Nc1ccc(O)c(C(=O)O)c1 [PS-1245, H-PyroGlu-Ala-Arg-CHA] equals 0.005

* * *

Recorded absorbance (O.D.) measured, FXa by entry
- tgt: Factor Xa (Bos taurus)
- Construct: purchased Sigma Inc. Lot 73F-9450
- Sequence (P00743 234-492 limits assumed): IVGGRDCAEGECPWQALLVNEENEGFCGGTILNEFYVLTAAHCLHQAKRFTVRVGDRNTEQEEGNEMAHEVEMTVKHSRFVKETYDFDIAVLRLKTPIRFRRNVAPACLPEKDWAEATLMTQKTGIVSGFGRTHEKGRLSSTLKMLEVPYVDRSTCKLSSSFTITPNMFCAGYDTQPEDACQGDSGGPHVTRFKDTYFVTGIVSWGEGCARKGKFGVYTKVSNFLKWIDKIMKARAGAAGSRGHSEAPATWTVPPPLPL
- Sequence (P00743 41-180 partner limits assumed): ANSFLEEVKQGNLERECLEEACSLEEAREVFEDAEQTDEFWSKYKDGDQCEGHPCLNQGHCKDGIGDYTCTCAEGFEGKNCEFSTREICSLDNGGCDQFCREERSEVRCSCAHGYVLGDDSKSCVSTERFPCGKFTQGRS
- test details: Substrate specificity: enzyme reaction with factor Xa, colorimetric
- Format: biochemical, Bovine
- test conditions: 700 nm; So = 0.4 mmol; 37° C., 5 minutes; pH 8.3; pentacyanoamineferroate
Counter-ions that a name gives are not always drawn.
Expressed in O.D., but write only the number.

Some solved cases for reference:
INSERT INTO measurements (compound, tgt, observed_measurement) VALUES
  ('N=C(N)NCCC[C@H](NC(=O)[C@@H]1CCCN1C(=O)[C@@H]1CCC(=O)N1)C(=O)Nc1ccc(O)c(C(=O)O)c1', 'Factor Xa (Bos taurus)', 0.008),
  ('CCC[C@H](NC(=O)[C@@H]1CCC(=O)N1)C(=O)N[C@@H](CCCNC(=N)N)C(=O)Nc1ccc(O)c(C(=O)O)c1 [PS-1295, H--PyroGlu--NVal--Arg--CHA.HCl]', 'Factor Xa (Bos taurus)', 0.008);

Measured absorbance (O.D.) measured, FXa (Factor Xa (Bos taurus)), entry CC[C@H](NC(=O)[C@@H]1CCC(=O)N1)C(=O)N[C@@H](CCCNC(=N)N)C(=O)Nc1ccc(O)c(C(=O)O)c1 [PS-1294, H--PyroGlu--But--Arg--CHA.HCl] : 0.010

* * *

absorbance (O.D.) measured, PL listing for selected compounds.
- tgt: UniProt:P00747
- Sequence (P00747 581-810 limits assumed): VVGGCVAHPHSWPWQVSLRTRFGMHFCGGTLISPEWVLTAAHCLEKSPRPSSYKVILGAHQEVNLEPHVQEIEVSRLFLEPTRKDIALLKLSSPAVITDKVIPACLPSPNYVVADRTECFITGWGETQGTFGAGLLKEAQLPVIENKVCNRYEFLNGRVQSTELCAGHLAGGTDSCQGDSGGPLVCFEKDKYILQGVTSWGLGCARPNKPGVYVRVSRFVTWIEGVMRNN
- Sequence (P00747 97-580 partner limits assumed): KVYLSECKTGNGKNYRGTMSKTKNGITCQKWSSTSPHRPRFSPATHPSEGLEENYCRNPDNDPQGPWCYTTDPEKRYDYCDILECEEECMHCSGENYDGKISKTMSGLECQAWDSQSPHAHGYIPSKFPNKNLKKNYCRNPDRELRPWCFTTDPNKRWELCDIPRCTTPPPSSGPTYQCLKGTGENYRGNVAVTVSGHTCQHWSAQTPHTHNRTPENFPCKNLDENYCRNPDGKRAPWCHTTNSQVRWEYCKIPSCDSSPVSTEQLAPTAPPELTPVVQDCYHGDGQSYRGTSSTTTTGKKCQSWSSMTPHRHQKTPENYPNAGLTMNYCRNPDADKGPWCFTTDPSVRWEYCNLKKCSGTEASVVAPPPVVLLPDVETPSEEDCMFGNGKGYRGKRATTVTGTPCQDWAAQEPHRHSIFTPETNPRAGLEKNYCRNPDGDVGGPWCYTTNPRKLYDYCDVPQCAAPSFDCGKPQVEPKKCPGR
- test details: Substrate specificity: enzyme reaction with plasmin, colorimetric
- Format: biochemical
- Set-up: purchased Green Cross Company Lot PL-35
- test conditions: 700 nm; So = 0.4 mmol; 37° C., 5 minutes; pH 7.8; pentacyanoamineferroate
Where a name gives a salt, the structure may show the parent alone.
All answers are understood in O.D., so give the number only.

Consider the worked cases shown below.
INSERT INTO assay_data (compound, tgt, observed_measurement) VALUES
  ('CC(C)[C@H](NC(=O)[C@@H]1CCC(=O)N1)C(=O)N[C@@H](CCCNC(=N)N)C(=O)Nc1ccc(O)c(C(=O)O)c1 [PS-1293, H--PyroGlu--Val--Arg--CHA.HCl]', 'UniProt:P00747', 0.007),
  ('C[C@H](NC(=O)[C@@H]1CCC(=O)N1)C(=O)N[C@@H](CCCNC(=N)N)C(=O)Nc1ccc(O)c(C(=O)O)c1', 'UniProt:P00747', 0.005),
  ('N=C(N)NCCC[C@H](NC(=O)CNC(=O)[C@H](N)CCC(=O)O)C(=O)Nc1ccc(O)c(C(=O)O)c1 [PS-1298, H--D--Glu--Gly--Arg--CHA.2HCl]', 'UniProt:P00747', 0.004),
  ('CCC[C@H](NC(=O)[C@@H]1CCC(=O)N1)C(=O)N[C@@H](CCCNC(=N)N)C(=O)Nc1ccc(O)c(C(=O)O)c1 [PS-1295, H--PyroGlu--NVal--Arg--CHA.HCl]', 'UniProt:P00747', 0.008),
  ('N=C(N)NCCC[C@H](NC(=O)[C@@H]1CCCN1C(=O)[C@@H]1CCC(=O)N1)C(=O)Nc1ccc(O)c(C(=O)O)c1', 'UniProt:P00747', 0.013);

The observed absorbance (O.D.) measured, PL for CCCC[C@H](NC(=O)[C@@H]1CCC(=O)N1)C(=O)N[C@@H](CCCNC(=N)N)C(=O)Nc1ccc(O)c(C(=O)O)c1 [PS-1296, H--PyroGlu--NLeu--Arg--CHA.HCl] when tested with UniProt:P00747 stands at 0.010

Record CC[C@H](NC(=O)[C@@H]1CCC(=O)N1)C(=O)N[C@@H](CCCNC(=N)N)C(=O)Nc1ccc(O)c(C(=O)O)c1 [PS-1294, H--PyroGlu--But--Arg--CHA.HCl] / UniProt:P00747, absorbance (O.D.) measured, PL recorded as 0.008

Tested on UniProt:P00747: `N=C(N)NCCC[C@H](NC(=O)[C@@H]1CCCCN1C(=O)[C@@H]1CCC(=O)N1)C(=O)Nc1ccc(O)c(C(=O)O)c1` . Observed absorbance (O.D.) measured, PL: 0.005
